# ASSAY METHOD TEXT: folding enthalpy; higher = less favourable; fluorescence melt of hairpins on a sequencing array, two-state fit
# TEST CONDITIONS: sodium 0.088 M
For each record, write down the corresponding folding enthalpy.

Problem: folding enthalpy lookup needed for GTTGAGCCGAAAGGCAAC (((..(((....)))))) , thanks.
Result: -10.6 kcal/mol

Problem: Fill in the blank: the reported folding enthalpy of GGGACCGAAAGGTGACCC ((((((....)))..))) is ____.
Result: -17.6 kcal/mol

Problem: What measured folding enthalpy goes with GTTGGCGAAAGCCCAAAC ((((((....)))..))) ?
Result: -7.1 kcal/mol

Problem: Quick one: folding enthalpy for GTTCAAGGAAACTTAAAC (((.(((....))).))) ?
Result: -10.5 kcal/mol

Problem: I would be grateful if you could share the reported folding enthalpy for GTTGTACGAAAGTAAAAC (((.(((....))).))) .
Result: -26.7 kcal/mol
